system: SEM cells; assay: cell viability relative to DMSO control; higher = less cytotoxic; settings: RPMI 5 mM glucose + 10% dialyzed FBS; 48 h; 46.1 µM
Parameter measured: cell viability (%)
Report only the number, with the unit % understood.

State the recorded cell viability for this entry: COc1ccccc1OCC(O)CN1CCN(CC(=O)Nc2c(C)cccc2C)CC1 (centres undefined)
126

Which measured cell viability value corresponds to `CC[P](CC)(CC)=[Au][S][C@@H]1O[C@H](COC(C)=O)[C@@H](OC(C)=O)[C@H](OC(C)=O)[C@H]1OC(C)=O` ?
2.9

What value of cell viability has been recorded for this entry: `CN(C)c1ccccc1CN1CCCN(Cc2ccccc2N(C)C)C1c1ccncc1`
80

Fill in: cell viability of `COC1=C(CC=C(C)C)C2=C(\C=C/C(=O)O2)C=C1` is ___
54.2

====

Give measured cell viability for each item. Keep answers brief.
tested on: NOMO1; test: cell viability relative to DMSO control; higher = less cytotoxic; conditions: RPMI 5 mM glucose + 10% dialyzed FBS; 48 h; 0.19 µM
Could you give me the number in %? Just the number is fine.

Can you look up cell viability on NOMO1 for `COC(=O)[C@@H]1CC2=CC(=O)CC[C@]2(C)[C@@]23O[C@@H]2C[C@@]2(C)[C@@H](CC[C@@]24CCC(=O)O4)[C@H]13` ?
108

// fetch NOMO1 cell viability for `COC1=C(CC=C(C)C)C2=C(\C=C/C(=O)O2)C=C1`
116

Lookup: cell viability / NOMO1 / `N[C@@H](Cc1cc(I)c(Oc2cc(I)c(O)c(I)c2)c(I)c1)C(=O)O`
95.5

Short answer please: cell viability, NOMO1, entry `CNCCN(C)Cc1c[nH]nc1-c1ccc(O[C@H]2C[C@H](OCCC3CCOCC3)C2)cc1`
130

Form field: cell viability recorded for `CN1C(=O)C(=C/2N(C(=O)N(C3CC3)C(=O)C2=C1/NC4=CC=C(I)C=C4F)C5=CC=CC(=C5)NC(C)=O)\C` with NOMO1 (enter value)
63.8

What reported cell viability corresponds to `OCCN1CCN(CCCN2c3ccccc3Sc3ccc(C(F)(F)F)cc32)CC1` on NOMO1?
109

Record `COc1c(C)c2c(c(O)c1C/C=C(\C)CCC(=O)OCCN1CCOCC1)C(=O)OC2` : what is its cell viability with NOMO1?
115

====

test system: SEM cells; experiment: cell viability relative to DMSO control; higher = less cytotoxic; settings: RPMI 5 mM glucose + 10% FBS; 48 h; 0.0211 µM
Parameter measured: cell viability (%)
Just the number please, in %, no unit attached.

Dear colleague, I am looking for the recorded cell viability of the following compound: `CC(=O)[C@H]1CC[C@H]2[C@@H]3C/C=C4/C[C@@H](O)CC[C@]4(C)[C@H]3CC[C@]12C`
117

Tell me the measured cell viability of `O=C(O)c1nn(Cc2ccc(Cl)cc2Cl)c2ccccc12` , please.
130

Give the measured cell viability of `CCC[S+](=O)([O-])Nc1ccc(F)c(C(=O)c2c[nH]c3ncc(-c4ccc(Cl)cc4)cc23)c1F` .
99.5

====

test system: NOMO1; experiment: cell viability relative to DMSO control; higher = less cytotoxic; settings: RPMI 5 mM glucose + 10% dialyzed FBS; 48 h; 5.12 µM
Parameter measured: cell viability
Note: state the figure and append the unit.

Fill in: cell viability of `COC(=O)Nc1nc2cc(Sc3ccccc3)ccc2[nH]1` is ___
32.6%

Bench note: what cell viability did `CCOC(=O)c1c(/C(C#N)=C\N)c2ccc(Cl)c(Cl)c2n1C` show?
87.2%

Looking for the measured cell viability of `CN1C(=O)\C(=C/C2=C1N=C(NC3CCOCC3)N=C2)OC4=C(F)C=C(F)C=C4` , can you help?
76.7%

====

tested on: NOMO1; experiment: AUC of viability dose-response curve (% viability x log10 dose units); higher = less sensitive; conditions: HPLM + 10% dialyzed FBS; 48 h
Parameter measured: AUC of viability dose-response curve
Number only, no unit.

Fill in: AUC of viability dose-response curve of `COc1c(C)c2c(c(O)c1C/C=C(\C)CCC(=O)OCCN1CCOCC1)C(=O)OC2` is ___
402

Look up AUC of viability dose-response curve for this molecule: `CC[C@@H](C)[C@H](NC(=O)[C@H](CC1CCCCC1)NC(=O)c1ccno1)C(=O)N1CCC2(CCc3ccccc32)CC1`
399

Quick one: AUC of viability dose-response curve for `N[C@@H](Cc1ccc(N(CCCl)CCCl)cc1)C(=O)O` ?
400

====

Assignment: determine reported cell viability for the given molecules.
system: SEM cells; experiment: cell viability relative to DMSO control; higher = less cytotoxic; settings: HPLM + 10% dialyzed FBS; 48 h; 0.00234 µM
Write the number in % without appending the unit.

Item under review: `Oc1ccc(-c2nc(-c3ccncc3)c(-c3ccc(F)cc3)[nH]2)cc1` . Reported cell viability?
90.6

# lookup: cell viability of `CC1(C)CCC(=C(\C1)C2=CC=C(Cl)C=C2)/CN3CCN(CC3)C4=CC(=C(C=C4)C(=O)N[S+]([O-])(=O)C5=CC=C(NCC6CCOCC6)C(=C5)[N+]([O-])=O)OC7=CN=C8[NH]C=CC8=C7`
95.1

Entry `CC(=O)[C@H]1CC[C@H]2[C@@H]3C/C=C4/C[C@@H](O)CC[C@]4(C)[C@H]3CC[C@]12C` has what cell viability?
91.7

Bench note: what cell viability did `CN1CCC(=C2c3ccccc3CCc3sccc32)CC1` show?
85

Need cell viability, item `CN1CCN(CC1)C/2=N/C3=CC=CC=C3NC4=C2C=C(C)S4`
105

====

test system: SEM cells; assay: cell viability relative to DMSO control; higher = less cytotoxic; settings: HPLM + 10% dialyzed FBS; 48 h; 0.000781 µM
Parameter measured: cell viability (%)
Number in %, nothing else.

Item under review: O=P1(NCCCl)OCCCN1CCCl (stereo not drawn) . Reported cell viability?
88.9

// query cell viability value for entry `O=C(Nc1ccncc1)C(=O)c1cn(Cc2ccc(Cl)cc2)c2ccccc12`
92.5

Give its cell viability value. Item: `COC(=O)[C@@H]1CC2=CC(=O)CC[C@]2(C)[C@@]23O[C@@H]2C[C@@]2(C)[C@@H](CC[C@@]24CCC(=O)O4)[C@H]13`
87.9

====

tested on: NOMO1; assay: cell viability relative to DMSO control; higher = less cytotoxic; details: RPMI 5 mM glucose + 10% dialyzed FBS; 48 h; 46.1 µM
Would you mind telling me the reported cell viability of each entry?

Entry `O=C1CCc2cc(OCCCCc3nnnn3C3CCCCC3)ccc2N1` : reported cell viability = ?
96%

Please give the measured cell viability for this compound: `Cc1n[nH]c2ccc(-c3cncc(OC[C@@H](N)Cc4c[nH]c5ccccc45)c3)cc12`
0.733%

Item under review: Clc1ccc(C(Cn2ccnc2)OCc2ccsc2Cl)c(Cl)c1 (centres undefined) . Reported cell viability?
73.5%

Any idea what its cell viability is? The compound is `Cc1ccc(C)c(OCCCC(C)(C)C(=O)O)c1`
96.2%

State the recorded cell viability for this entry: O=P1(NCCCl)OCCCN1CCCl (centres undefined)
78.1%

Would you mind telling me what cell viability value was observed for `O=C(Nc1cccc2c(=O)cc(-c3nnn[nH]3)oc12)c1ccc(OCCCCc2ccccc2)cc1` ?
22.8%

Look at this compound and give its reported cell viability. `CNC(=O)c1cc(COc2nnc(Nc3ccc(Cl)cc3)c3ccoc23)ccn1`
87.3%

Entry `COC1=CC2=C(C=C1CC3=C(F)C(=CC=C3)Cl)C(=O)\C(=C/N2[C@H](CO)C(C)C)C(O)=O` : reported cell viability = ?
24.7%

What value of cell viability has been reported for the following compound? `Cc1ccnc(N[S+](=O)([O-])c2ccc(NC(=O)Nc3ccc([S+](=O)([O-])Nc4nccc(C)n4)cc3)cc2)n1`
2.51%

====

test system: P12-Ichikawa; experiment: cell viability relative to DMSO control; higher = less cytotoxic; conditions: RPMI 5 mM glucose + 10% dialyzed FBS; 48 h; 0.00234 µM
Parameter measured: cell viability (%)
Kindly provide the numeric value in % only, without the unit symbol.

Query (compound): `O=C(O)c1nn(Cc2ccc(Cl)cc2Cl)c2ccccc12` ; field requested: cell viability
79.1

Give the measured cell viability of `C[C@]12CCC(=O)C(O)=C1CC[C@@H]1[C@@H]2CC[C@]2(C)C(=O)CC[C@@H]12` .
124

Look up cell viability: `C[C@@H](Oc1ccc2[nH]nc(/C=C/c3cnn(CCO)c3)c2c1)c1c(Cl)cncc1Cl`
92.2

Need cell viability of Cc1ccc([S+](=O)([O-])NC(=O)NN2CC3CCCC3C2)cc1 (configuration not stated) , thanks.
109

What value of measured cell viability is listed for `C=C1C(=O)O[C@@H]2[C@H]3O[C@]3(C)CC/C=C(\C)CC[C@@H]12` ?
112

Look up cell viability: `COC(=O)Nc1nc2cc(Sc3ccccc3)ccc2[nH]1`
109

Recorded cell viability of `CC1(C)CCC(=C(\C1)C2=CC=C(Cl)C=C2)/CN3CCN(CC3)C4=CC(=C(C=C4)C(=O)N[S+]([O-])(=O)C5=CC=C(NCC6CCOCC6)C(=C5)[N+]([O-])=O)OC7=CN=C8[NH]C=CC8=C7` , please.
103

Can you look up the measured cell viability of `N[S+](=O)([O-])c1cc2c(cc1Cl)NCN[S+]2(=O)[O-]` for me?
106

Tell me the measured cell viability of `CCNC(=O)c1noc(-c2cc(C(C)C)c(O)cc2O)c1-c1ccc(CN2CCOCC2)cc1` , please.
112

Consider the compound `COc1cc([C@@H]2c3cc4c(cc3[C@@H](O[C@@H]3O[C@@H]5CO[C@@H](C)O[C@H]5[C@H](O)[C@H]3O)[C@H]3COC(=O)[C@H]23)OCO4)cc(OC)c1O` and give its measured cell viability.
78.2

Requested read-out: cell viability. Entry: `Cc1cc(-c2ccc(CC(=O)Nc3ccc(-c4cccnc4)cc3)cc2)ccn1`
110

Report cell viability for `CC[P](CC)(CC)=[Au][S][C@@H]1O[C@H](COC(C)=O)[C@@H](OC(C)=O)[C@H](OC(C)=O)[C@H]1OC(C)=O` please.
111
